# Study System: T1, human neuropeptide Y2 receptor (human, UniProt P49146 1-381)
# T1 construct: whole, on cells; also called hNPY2 receptor; hNPY2-R
# T1 sequence (looked up): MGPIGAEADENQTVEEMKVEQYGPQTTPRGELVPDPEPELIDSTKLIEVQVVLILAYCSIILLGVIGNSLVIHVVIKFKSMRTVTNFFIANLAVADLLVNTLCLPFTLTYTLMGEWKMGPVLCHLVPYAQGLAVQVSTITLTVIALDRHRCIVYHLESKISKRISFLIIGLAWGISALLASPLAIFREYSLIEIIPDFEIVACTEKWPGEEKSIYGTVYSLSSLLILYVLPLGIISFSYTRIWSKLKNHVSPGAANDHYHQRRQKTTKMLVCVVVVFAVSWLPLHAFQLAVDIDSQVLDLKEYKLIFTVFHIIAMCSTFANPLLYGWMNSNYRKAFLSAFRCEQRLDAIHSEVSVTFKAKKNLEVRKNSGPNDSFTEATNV
# Measurement Notes: RLB 7: apparent Ki of filtrate after incubation at pH 7.1-7.2
*1 amine or outer side, *2 acyl side, *3 side chain or, on linkers, in order; H or OH if unused. Side-chain parts run from the residue outwards. The star is where a group is joined. C18 diacid = O=C(O)CCCCCCCCCCCCCCCCC(=O)*; γGlu = O=C(O)[C@H](CCC(=O)[*:2])N[*:1]; Isovaleryl = CC(C)CC(=O)*; AEEA = NCCOCCOCC(=O)O
Measured Quantity: pKi
Just the number, please; pKi means minus log10 of the concentration in mol/L.

Some binders with recorded pKi:
• Isovaleryl-APAK([AEEA-AEEA-γGlu-C18 diacid])PEEDASPEEIQRYYVSLRHYYNWLTRQRY-NH2 [Compound 23] = 8.20
• Isovaleryl-APAK([AEEA-AEEA-γGlu-C18 diacid])PEEDASPEELQRYYVSLRHYYNWLTRQRY-NH2 [Compound 203] = 7.95
• Isovaleryl-APAK([AEEA-AEEA-γGlu-C18 diacid])PEEDATPEELQRYYVSLRHYYNWLTRQRY-NH2 [Compound 106] = 8.03

(Q) If you can, please state the reported pKi value of Isovaleryl-APEK([AEEA-AEEA-γGlu-C18 diacid])PEADASPEEIQRYYVSLRHYYNWLTRQRY-NH2 [Compound 53] .
(A) 8.51
